Target under test: SIRT6 (Homo sapiens, UniProt Q8N6T7)
Sequence (Q8N6T7 whole entry): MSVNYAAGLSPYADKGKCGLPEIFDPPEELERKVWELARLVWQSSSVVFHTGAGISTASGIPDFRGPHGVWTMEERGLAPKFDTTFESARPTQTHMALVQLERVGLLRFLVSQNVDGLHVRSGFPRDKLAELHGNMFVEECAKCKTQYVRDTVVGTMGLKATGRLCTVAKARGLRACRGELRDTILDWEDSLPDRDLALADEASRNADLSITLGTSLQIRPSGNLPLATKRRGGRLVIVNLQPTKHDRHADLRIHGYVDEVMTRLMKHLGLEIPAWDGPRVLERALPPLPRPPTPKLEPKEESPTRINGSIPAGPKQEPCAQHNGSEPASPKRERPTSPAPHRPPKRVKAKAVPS
Test details: SIRT6 enzymatic activity assay with fluorophore (AMC)-labeled Lysin-myristoylated histone H3 peptide (de-myristoylation, trypsin release)
Type: biochemical
Set-up: six-histidine tag; made in house; host or cells: Escherichia coli BL21
Settings: compound 100 uM; percentage of signal increase relative to control wells; Tables 1-2
Measured attribute: % activity Max. conc. 100 uM (%)

> print(dat)
                                   compound                     target.under.test  reported.result
1  Cc1nc(-c2cccc(C(F)(F)F)c2)c(N)c(N(C)C2CCN(C)CC2)n1  SIRT6 (Homo sapiens, UniProt Q8N6T7)              255
2  Cc1ccnc(NC(c2ccc(Cl)cc2Cl)c2ccc3cccnc3c2O)c1 (centres unmarked)  SIRT6 (Homo sapiens, UniProt Q8N6T7)               28
3      CC1=NCC(c2ccc(O)cc2O)=C1c1ccc(Cl)cc1  SIRT6 (Homo sapiens, UniProt Q8N6T7)               94

P. Cc1ccc(Nc2nc(C)c(C(=O)Nc3cccc(C(C)C)c3)s2)cc1
Q. O=c1cc(O)c2sc3nc4c(cc3c2[nH]1)CCCCC4
Query :: Parameter metric = % activity Max. conc. 100 uM. Return the lower-valued option from P and Q . Refer to your chosen entry by its label in the reply.
Result :: P
(P: 11%, Q: 75%)
